Values compiled from PubChem BioAssay AID1347418.

Molecular target: Sulfhydryl oxidase 1 (Homo sapiens)
Experiment: inhibition of human sulfhydryl oxidase QSOX1 – biochemical, ROS-Glo H2O2 luminescence, HTS, primary screen (AID 1347418)
Conditions: recombinant QSOX1, ROS-Glo H2O2 luminescence, at 12.5 µM, hits give high values; active = any value above zero unless noted
Hit rate of the full screen: of about 1,300 compounds, about 750 (58%) were called active. This is one part of the list.
Lab note: assign the record to one of active, inactive

Exam item: Query: recorded result category for `CC(C)(C)c1cc(C=C(C#N)C#N)cc(C(C)(C)C)c1O` in this test
Marked response: active

Exam item: Query: recorded result category for `CC(C)Oc1cccnc1N(C)C1CCN(Cc2ccccc2)CC1` in this test
Marked response: active

Exam item: Query: recorded result category for `CN1CCC(c2c[nH]c3ccc(O)cc23)CC1` in this test
Marked response: active

Exam item: Query: recorded result category for `COC(=O)[C@@H](N)CCCN=C(N)N[N+](=O)[O-]` in this test
Marked response: active

Exam item: Query: recorded result category for `NC(=NCCC[C@H](N)C(=O)O)N[N+](=O)[O-]` in this test
Marked response: inactive

Exam item: Query: recorded result category for Cc1o[nH]c(=O)c1CC(N)C(=O)O (configuration not stated) in this test
Marked response: active

Exam item: Query: recorded result category for `COc1ccc(CNC(=O)/C=C/c2ccc3[nH]cc(CCN(C)C)c3c2)cc1` in this test
Marked response: active

Exam item: Query: recorded result category for `OCc1cnc[nH]1` in this test
Marked response: inactive

Exam item: Query: recorded result category for `CCCN1CCC[C@H](c2cccc(O)c2)C1` in this test
Marked response: active

Exam item: Query: recorded result category for `O=C(O)Cc1cnc[nH]1` in this test
Marked response: active

Exam item: Query: recorded result category for `CC(=O)c1c(O)c(C)c(O)c(Cc2c(O)c3c(c(C(=O)/C=C/c4ccccc4)c2O)OC(C)(C)C=C3)c1O` in this test
Marked response: active

Exam item: Query: recorded result category for `Nc1ccc(CCN2CCN(c3cccc(C(F)(F)F)c3)CC2)cc1` in this test
Marked response: active

---

Molecular target: Sulfhydryl oxidase 1 (Homo sapiens) (UniProt O00391)
Sequence (O00391 whole entry, looked up): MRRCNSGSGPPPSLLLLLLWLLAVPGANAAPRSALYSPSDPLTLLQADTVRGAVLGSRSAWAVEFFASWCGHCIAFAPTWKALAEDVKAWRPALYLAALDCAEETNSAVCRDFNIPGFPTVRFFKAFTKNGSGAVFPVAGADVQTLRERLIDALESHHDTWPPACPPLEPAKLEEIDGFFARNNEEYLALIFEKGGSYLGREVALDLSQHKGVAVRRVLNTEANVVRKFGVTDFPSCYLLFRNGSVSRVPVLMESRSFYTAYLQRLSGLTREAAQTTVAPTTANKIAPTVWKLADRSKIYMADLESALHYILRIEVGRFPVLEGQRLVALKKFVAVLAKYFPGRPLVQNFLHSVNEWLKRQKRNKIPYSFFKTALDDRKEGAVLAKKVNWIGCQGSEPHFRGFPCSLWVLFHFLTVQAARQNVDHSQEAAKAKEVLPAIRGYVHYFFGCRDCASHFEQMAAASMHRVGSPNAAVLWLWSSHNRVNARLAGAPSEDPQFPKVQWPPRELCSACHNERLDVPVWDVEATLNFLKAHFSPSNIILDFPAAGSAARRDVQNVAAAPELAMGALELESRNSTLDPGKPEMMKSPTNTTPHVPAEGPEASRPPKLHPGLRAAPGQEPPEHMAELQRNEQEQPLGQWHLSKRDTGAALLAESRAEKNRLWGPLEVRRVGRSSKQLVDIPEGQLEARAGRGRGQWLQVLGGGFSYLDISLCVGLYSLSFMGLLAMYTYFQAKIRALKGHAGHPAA
Assay: inhibition of human sulfhydryl oxidase QSOX1 – biochemical, ROS-Glo H2O2 luminescence, HTS, primary screen (AID 1347418)
Details: recombinant QSOX1, ROS-Glo H2O2 luminescence, at 12.5 µM, hits give high values; active = any value above zero unless noted
Out of some 1,300 compounds screened, about 750 (58%) were called active. The list shows a part of the results.
Lab note: assign the record to one of yes for active, no for inactive

Exam item: Query: recorded result category for `c1ccc2cc(CC3=NCCN3)ccc2c1` in this test
Marked response: no

Exam item: Query: recorded result category for `CCCN1CCc2cc(O)cc3c2[C@H]1Cc1ccc(O)c(O)c1-3` in this test
Marked response: yes

Exam item: Query: recorded result category for `Cc1[nH]c2ccc(O)cc2c1CCN` in this test
Marked response: yes

Exam item: Query: recorded result category for CC(N)Cc1c[nH]c2ccc(O)cc12 (centres undefined) in this test
Marked response: yes

Exam item: Query: recorded result category for `C=C(C)[C@H]1CN[C@H](C(=O)O)[C@H]1CC(=O)O` in this test
Marked response: no

Exam item: Query: recorded result category for `NC(=O)COc1c(F)cc(SCCNS(=O)(=O)c2ccccc2)cc1F` in this test
Marked response: yes

Exam item: Query: recorded result category for `NC(N)=NOCC[C@H](N)C(=O)O` in this test
Marked response: yes

Exam item: Query: recorded result category for NC1CCc2cc(O)c(O)cc2C1 (centres undefined) in this test
Marked response: yes

Exam item: Query: recorded result category for NC(N)=NOCCC(N)C(=O)O (centres undefined) in this test
Marked response: no

Exam item: Query: recorded result category for `CNCCc1ccc(O)c(O)c1` in this test
Marked response: yes

Exam item: Query: recorded result category for `C[C@@H](N)Cc1cnc[nH]1` in this test
Marked response: yes

Exam item: Query: recorded result category for CCCC(C)(COC(N)=O)COC(=O)NC(C)C (centres undefined) in this test
Marked response: yes

Exam item: Query: recorded result category for `NCc1cc(=O)[nH]o1` in this test
Marked response: no

Exam item: Query: recorded result category for `C=CCN(C1=NCCN1)c1c(Cl)cccc1Cl` in this test
Marked response: no

---

Biological target: Sulfhydryl oxidase 1 (Homo sapiens) (UniProt O00391)
Assay: inhibition of human sulfhydryl oxidase QSOX1 – biochemical, ROS-Glo H2O2 luminescence, HTS, primary screen (AID 1347418)
Conditions: recombinant QSOX1, ROS-Glo H2O2 luminescence, at 12.5 µM, hits give high values; active = any value above zero unless noted
Screen size: about 1,300 compounds; about 750 (58%) were called active. This is one part of the list.
Property measured: inhibition

Exam item: I have this compound here, CC(N)[C@H](O)c1ccc(O)c(O)c1 (some centres not stated) , and I need its recorded inhibition.
Marked response: 10.4% [setting not given] (active)

Exam item: I have this compound here, `O=C(CCCN1CCC2(CC1)C(=O)NCN2c1ccccc1)c1ccc(F)cc1` , and I need its recorded inhibition.
Marked response: -1% [setting not given] (inactive)

Exam item: I have this compound here, `Cc1c(C(=O)c2cccc3ccccc23)c2cccc3c2n1[C@H](CN1CCOCC1)CO3` , and I need its recorded inhibition.
Marked response: 7.5% [setting not given] (active)

Exam item: I have this compound here, `NC(=O)CI` , and I need its recorded inhibition.
Marked response: -1.4% (inactive)

Exam item: I have this compound here, `C[C@H](Cc1ccc2c(c1)OC(C(=O)O)(C(=O)O)O2)NC[C@H](O)c1cccc(Cl)c1` , and I need its recorded inhibition.
Marked response: -1.8% (inactive)

Exam item: I have this compound here, `Fc1ccc(C(OCCN2CCN(CCCc3ccccc3)CC2)c2ccc(F)cc2)cc1` , and I need its recorded inhibition.
Marked response: 6.5% (active)

Exam item: I have this compound here, COc1ccc(OC)c(C(O)C(C)N)c1 (configuration not stated) , and I need its recorded inhibition.
Marked response: -1.4% [setting not given] (inactive)

Exam item: I have this compound here, `c1ccc(CCCN2CCN(CCOC(c3ccccc3)c3ccccc3)CC2)cc1` , and I need its recorded inhibition.
Marked response: 7% (active)

Exam item: I have this compound here, NC(Cc1ccc(N(CCCl)CCCl)cc1)C(=O)O (configuration not stated) , and I need its recorded inhibition.
Marked response: 32.1% (active)

Exam item: I have this compound here, `Cc1ncsc1CCCl` , and I need its recorded inhibition.
Marked response: 4.8% (active)

Exam item: I have this compound here, `CCOC(=O)c1ncn2c1[C@@H]1CCCN1C(=O)c1cc(OC)ccc1-2` , and I need its recorded inhibition.
Marked response: 3.1% (active)

Exam item: I have this compound here, `Cn1c(CCCC(=O)O)nc2cc(N(CCCl)CCCl)ccc21` , and I need its recorded inhibition.
Marked response: 33.3% (active)

---

For each of the molecules below, state its inhibition.
Molecular target: Sulfhydryl oxidase 1 (Homo sapiens)
Test: inhibition of human sulfhydryl oxidase QSOX1 – biochemical, ROS-Glo H2O2 luminescence, HTS, primary screen (AID 1347418)
Conditions: recombinant QSOX1, ROS-Glo H2O2 luminescence, at 12.5 µM, hits give high values; active = any value above zero unless noted
The campaign covered roughly 1,300 compounds. About 750 (58%) were called active. Some of the results follow.

Exam item: I have this molecule here, CC12CCC3C(CCC4=C(O)C(=O)CCC43C)C1CCC2=O (centres undefined) , and I need its recorded inhibition.
Marked response: 0.2% [setting not given] (active)

Exam item: I have this molecule here, `C[C@H](N)Cc1cccc(C(F)(F)F)c1` , and I need its recorded inhibition.
Marked response: 1.6% [setting not given] (active)

Exam item: I have this molecule here, `C=CCN1C[C@@H](C)N([C@H](c2ccc(C(=O)N(CC)CC)cc2)c2cccc(OC)c2)C[C@@H]1C` , and I need its recorded inhibition.
Marked response: -4.2% (inactive)

Exam item: I have this molecule here, CC(C)(O)[C@@H]1[C@H]2OC(=O)[C@@H]1[C@]1(O)C[C@H]3O[C@]34C(=O)O[C@H]2[C@]14C (tested in a mixture with another compound) , and I need its recorded inhibition.
Marked response: -1.5% (inactive)

---

Target: Sulfhydryl oxidase 1 (Homo sapiens)
Test: inhibition of human sulfhydryl oxidase QSOX1 – biochemical, ROS-Glo H2O2 luminescence, HTS, primary screen (AID 1347418)
Conditions: recombinant QSOX1, ROS-Glo H2O2 luminescence, at 12.5 µM, hits give high values; active = any value above zero unless noted
Hit rate of the full screen: of about 1,300 compounds, about 750 (58%) were called active. This is one part of the list.
Lab note: assign the record to one of 1.0 (active), 0.0 (inactive)

Exam item: Query: recorded result category for `O=C(O)c1cc[c]([Hg][Cl])cc1` in this test
Marked response: 0.0

Exam item: Query: recorded result category for CCCN(CCC)C1CCc2cccc(O)c2C1 (stereo unspecified) in this test
Marked response: 0.0

Exam item: Query: recorded result category for `CCCN(CCC)[C@@H]1CCc2cccc(O)c2C1` in this test
Marked response: 1.0

Exam item: Query: recorded result category for `S=C(NC1CCCCC1)N1CCC(c2cnc[nH]2)CC1` in this test
Marked response: 0.0

Exam item: Query: recorded result category for `O=c1c2ccccc2[se]n1-c1ccccc1` in this test
Marked response: 1.0

Exam item: Query: recorded result category for `CC[C@@H](C(N)=O)N1CCCC1=O` in this test
Marked response: 0.0

Exam item: Query: recorded result category for `CN1C[C@H](CNC(=O)OCc2ccccc2)C[C@@H]2c3cccc4c3c(cn4C)C[C@H]21` in this test
Marked response: 1.0

Exam item: Query: recorded result category for `O=[N+]([O-])c1ccc2nc(N3CCNCC3)ccc2c1` in this test
Marked response: 1.0

Exam item: Query: recorded result category for `CN1CCc2cccc(Cl)c2CC1` in this test
Marked response: 0.0

Exam item: Query: recorded result category for `Clc1cnc(Oc2ccc(Oc3ncc(Cl)cc3Cl)cc2)c(Cl)c1` in this test
Marked response: 0.0

Exam item: Query: recorded result category for `Cn1cnc(CCN)c1` in this test
Marked response: 0.0

Exam item: Query: recorded result category for `C=CCN1CC[C@]23c4c5ccc(O)c4O[C@H]2/C(=N/NC(=O)c2ccccc2)CC[C@@]3(O)[C@H]1C5` in this test
Marked response: 0.0

Exam item: Query: recorded result category for CCCN(CCC)C1CCc2ccc(O)cc2C1 (stereo unspecified) in this test
Marked response: 1.0

Exam item: Query: recorded result category for C[C@H]1C2Cc3ccc(O)cc3C1(C)CCN2CC1CC1 (stereo partly specified) in this test
Marked response: 1.0

Exam item: Query: recorded result category for `COc1ccc2[nH]c3c(c2c1)CCNC3` in this test
Marked response: 1.0

Exam item: Query: recorded result category for O=C1CC[C@@]2(O)C3Cc4ccc(O)c5c4C2(CCN3CC2CC2)[C@H]1O5 (stereo partly specified) in this test
Marked response: 1.0

Exam item: Query: recorded result category for CCCCCCCCCCCCCC(=O)O[C@@H]1[C@@H](C)[C@@]2(O)[C@@H](C=C(CO)C[C@@]3(O)C(=O)C(C)=C[C@@H]23)C2C(C)(C)[C@@]21OC(C)=O (stereo partly specified) in this test
Marked response: 1.0

Exam item: Query: recorded result category for `Cc1ccc(S(=O)(=O)N[C@@H](CCCCN)C(=O)CCl)cc1` in this test
Marked response: 1.0

Exam item: Query: recorded result category for `NC(=O)CN1CCCC1=O` in this test
Marked response: 1.0

Exam item: Query: recorded result category for NC(Cc1cc(O)c(O)cc1O)C(=O)O (stereo unspecified) in this test
Marked response: 1.0

Exam item: Query: recorded result category for CS(=N)(=O)CC[C@H](N)C(=O)O (stereo partly specified) in this test
Marked response: 1.0

Exam item: Query: recorded result category for `Cc1cccc(C)c1NC(=O)CN1CCCC1=O` in this test
Marked response: 1.0

Exam item: Query: recorded result category for `CCCN(CCC)[C@H]1CCc2c(F)ccc(O)c2C1` in this test
Marked response: 0.0

Exam item: Query: recorded result category for C=CCN1CCC23c4c5ccc(O)c4O[C@H]2C(=O)CC[C@@]3(O)C1C5 (stereo partly specified) in this test
Marked response: 1.0

Exam item: Query: recorded result category for CCC1(c2ccc(N)cc2)CCC(=O)NC1=O (stereo unspecified) in this test
Marked response: 0.0

Exam item: Query: recorded result category for `O=C1CCCN1CC#CCN1CCCC1` in this test
Marked response: 0.0
